- system-under-test: M4 muscarinic receptor (Homo sapiens)
- Construct: expressed in transfected cells; host or cells: CHO (M4-CHO)
- Sequence (P08173 whole entry): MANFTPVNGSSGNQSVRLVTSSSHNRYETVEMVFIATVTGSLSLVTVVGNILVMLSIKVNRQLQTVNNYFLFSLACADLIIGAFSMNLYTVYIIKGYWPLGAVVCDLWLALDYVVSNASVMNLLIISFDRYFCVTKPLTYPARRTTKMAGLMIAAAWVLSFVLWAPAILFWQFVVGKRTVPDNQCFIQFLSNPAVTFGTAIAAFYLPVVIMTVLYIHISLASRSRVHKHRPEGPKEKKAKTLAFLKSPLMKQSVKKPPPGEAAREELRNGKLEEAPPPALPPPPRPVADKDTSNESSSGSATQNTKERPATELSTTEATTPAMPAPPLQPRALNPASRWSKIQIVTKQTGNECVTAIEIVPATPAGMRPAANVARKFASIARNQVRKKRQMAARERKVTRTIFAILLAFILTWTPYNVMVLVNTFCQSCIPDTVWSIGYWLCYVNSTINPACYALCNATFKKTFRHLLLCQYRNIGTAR
- assay-details: Functional mobilization of intracellular calcium (FLIPR), M4-CHO cells
- Format: cell-based
- details: 100% efficacy is the maximum response obtained with the Carbachol control
measured-parameter: Emax

Known results for compounds:
>  <compound>
COc1ccc(Cl)cc1C1(O)CCN(C[C@H]2C[C@H]3C=C[C@H]2C3)CC1 [Compound 394]

>  <value>
25 to 100%

$$$$
>  <compound>
COc1ccccc1C1(C#N)CCN(C2CC3CCC(C3)C2)CC1 (stereo not shown) [Compound 421]

>  <value>
25 to 100%

$$$$
>  <compound>
COc1cccc(-c2ccccc2C2CCN([C@H]3C[C@H]4CC[C@H]3C4)CC2)c1OC [Compound 402]

>  <value>
25 to 100%

$$$$

Input line: Which Emax is reported for this compound? CCOC(=O)N1CCC(CN2CCC(c3cc(-c4ccc(S(=O)(=O)N5CCCC5)cc4)ccc3OC)CC2)CC1 [Compound 411]
Output line: < 25%

Input line: Which Emax is reported for this compound? COc1ccc(-c2ccc(OC)c(C3CCN([C@@H]4C[C@H]5CC[C@H]4C5)CC3)c2)cc1 [Compound 393]
Output line: 25 to 100%

Input line: Which Emax is reported for this compound? COc1ccc(Cl)cc1C1CCN(C2(C)CCOCC2)CC1 [Compound 372]
Output line: 25 to 100%

Input line: Which Emax is reported for this compound? COc1ccc(-c2ccc(C(=O)NC3CC3)cc2)cc1C1CCN([C@H]2C[C@H]3CC[C@H]2C3)CC1 [Compound 401]
Output line: < 25%

---

- system-under-test: M1 muscarinic receptor (Homo sapiens, UniProt P11229)
- Construct: expressed in transfected cells; host or cells: CHO (M1-CHO)
- Sequence (P11229 1-460): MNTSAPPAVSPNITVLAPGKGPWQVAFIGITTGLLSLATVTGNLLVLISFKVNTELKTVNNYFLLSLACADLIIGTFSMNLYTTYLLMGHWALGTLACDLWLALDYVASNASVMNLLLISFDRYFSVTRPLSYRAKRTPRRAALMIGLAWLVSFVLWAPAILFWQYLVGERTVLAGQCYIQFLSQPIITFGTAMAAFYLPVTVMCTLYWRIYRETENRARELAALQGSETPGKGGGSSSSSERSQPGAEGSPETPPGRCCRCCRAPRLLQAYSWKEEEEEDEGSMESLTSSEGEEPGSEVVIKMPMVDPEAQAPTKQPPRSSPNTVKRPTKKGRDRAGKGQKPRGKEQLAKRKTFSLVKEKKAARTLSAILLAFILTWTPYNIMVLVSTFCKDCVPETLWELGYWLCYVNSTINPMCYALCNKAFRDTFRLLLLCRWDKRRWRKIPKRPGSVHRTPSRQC
- assay-details: Functional mobilization of intracellular calcium (FLIPR), M1-CHO cells
- Type: cell-based
- details: 100% efficacy = maximum response obtained with the Carbachol control
measured-parameter: Emax

>  <compound>
Fc1cccc(-c2ccccc2C2CCN([C@H]3C[C@H]4CC[C@H]3C4)CC2)c1

>  <measured-parameter>
Emax

>  <value>
< 25%

$$$$
>  <compound>
CNC(=O)c1ccc(-c2ccc(OC)c(C3CCN(C4CCOCC4)CC3)c2)cc1Cl

>  <measured-parameter>
Emax

>  <value>
< 25%

$$$$
>  <compound>
Cc1ccc(C(=O)COc2ccccc2C2CCN([C@H]3C[C@H]4CC[C@H]3C4)CC2)cc1

>  <measured-parameter>
Emax

>  <value>
25 to 100%

$$$$
>  <compound>
COc1ccccc1C1CCN(C2CCC(C)C2)CC1 (centres unmarked)

>  <measured-parameter>
Emax

>  <value>
25 to 100%

$$$$
>  <compound>
COc1ccc(C)cc1C1CCN(C2C[C@H]3CC[C@H](C2)C3)CC1 (some centres unmarked)

>  <measured-parameter>
Emax

>  <value>
25 to 100%

$$$$
>  <compound>
COc1ccc(Cl)cc1C1(OC)CCN(C2CCC3CCC2C3)CC1 (centres unmarked)

>  <measured-parameter>
Emax

>  <value>
25 to 100%

$$$$
>  <compound>
COc1ccc(F)cc1C1(F)CCN(CC2CCOCC2)CC1

>  <measured-parameter>
Emax

>  <value>
25 to 100%

$$$$

Turning to the following compound.
Input line: Which Emax is reported for this compound? Cc1c(C2CCN(C3CCOCC3)CC2)cccc1C(F)(F)F
Output line: < 25%

---

This section presents compounds with their documented Emax values.
- system-under-test: M1 muscarinic receptor (Homo sapiens, UniProt P11229)
- Construct: expressed in transfected cells; host or cells: CHO (M1-CHO)
- Sequence (P11229 1-460): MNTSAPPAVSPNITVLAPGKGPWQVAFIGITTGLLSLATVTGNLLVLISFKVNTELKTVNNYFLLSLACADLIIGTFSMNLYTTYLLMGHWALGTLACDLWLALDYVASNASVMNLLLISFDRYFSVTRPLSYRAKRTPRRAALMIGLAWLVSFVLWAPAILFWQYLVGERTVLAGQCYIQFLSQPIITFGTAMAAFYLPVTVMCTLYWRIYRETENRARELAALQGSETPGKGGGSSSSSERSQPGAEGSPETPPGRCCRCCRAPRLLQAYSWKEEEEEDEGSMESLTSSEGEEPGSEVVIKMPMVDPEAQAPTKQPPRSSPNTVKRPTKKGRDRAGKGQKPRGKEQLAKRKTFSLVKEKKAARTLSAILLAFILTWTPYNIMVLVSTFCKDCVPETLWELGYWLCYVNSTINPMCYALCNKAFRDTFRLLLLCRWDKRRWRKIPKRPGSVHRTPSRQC
- assay-details: Functional mobilization of intracellular calcium (FLIPR), M1-CHO cells
- Type: cell-based
- details: 100% efficacy = maximum response obtained with the Carbachol control

>  <compound>
COc1ccccc1-c1ccc(OC)c(C2CCN([C@H]3C[C@H]4CC[C@H]3C4)CC2)c1

>  <Emax>
< 25%

$$$$
>  <compound>
CCCC1CCC(N2CCC(c3cc(F)ccc3OC)CC2)CC1 (centres unmarked)

>  <Emax>
25 to 100%

$$$$
>  <compound>
COc1ccc(Cl)cc1C1(OC)CCN(C2CCCCC2)CC1

>  <Emax>
25 to 100%

$$$$
>  <compound>
COc1ccc(-c2ccc(CC#N)cc2)cc1C1CCN(C2CC3CCC(C3)C2)CC1 (centres unmarked)

>  <Emax>
< 25%

$$$$

Input line: Which Emax is reported for this compound? COc1ccc(-c2cccc(C)c2)cc1C1CCN([C@H]2C[C@H]3CC[C@H]2C3)CC1
Output line: < 25%

Input line: Which Emax is reported for this compound? COc1ccc(-c2ccc(CC#N)cc2)cc1C1CCN(C2C[C@H]3CC[C@H]2C3)CC1 (some centres unmarked)
Output line: < 25%

Input line: Which Emax is reported for this compound? COc1ccc(Cl)cc1C1(OC)CCN(C[C@H]2C[C@H]3C=C[C@@H]2C3)CC1
Output line: 25 to 100%

Input line: Which Emax is reported for this compound? COc1ccccc1C1CCN(C2CCCS(=O)(=O)CC2)CC1 (centres unmarked)
Output line: 25 to 100%

---

- system-under-test: M3 muscarinic receptor (Homo sapiens)
- Construct: expressed in transfected cells; host or cells: CHO (M3-CHO)
- Sequence (P20309 whole entry): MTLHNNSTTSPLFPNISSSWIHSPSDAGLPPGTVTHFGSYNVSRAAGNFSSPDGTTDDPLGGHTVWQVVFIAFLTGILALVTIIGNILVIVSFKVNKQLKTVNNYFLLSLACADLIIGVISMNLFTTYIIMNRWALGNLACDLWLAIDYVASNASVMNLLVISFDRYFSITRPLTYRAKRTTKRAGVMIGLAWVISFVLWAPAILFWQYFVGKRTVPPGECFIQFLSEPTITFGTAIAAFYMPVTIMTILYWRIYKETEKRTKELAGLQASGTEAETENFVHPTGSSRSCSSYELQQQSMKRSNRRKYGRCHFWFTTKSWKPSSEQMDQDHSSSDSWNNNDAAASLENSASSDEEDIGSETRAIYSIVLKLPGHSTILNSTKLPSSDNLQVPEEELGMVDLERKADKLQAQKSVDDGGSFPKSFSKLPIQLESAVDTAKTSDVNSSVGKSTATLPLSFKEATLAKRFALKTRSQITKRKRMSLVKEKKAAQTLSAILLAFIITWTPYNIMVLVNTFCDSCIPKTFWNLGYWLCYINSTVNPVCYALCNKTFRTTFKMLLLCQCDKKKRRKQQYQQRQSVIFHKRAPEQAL
- assay-details: Functional mobilization of intracellular calcium (FLIPR), M3-CHO cells
- Assay type: cell-based
- details: 100% efficacy = maximum response obtained with the Carbachol control
measured-parameter: Emax

>  <compound>
COc1ccc(F)cc1C1(OC)CCN(CC2CCOCC2)CC1

>  <value>
< 25%

$$$$
>  <compound>
COc1ccc(F)cc1C1(F)CCN(C2CCCCC2)CC1

>  <value>
< 25%

$$$$
>  <compound>
CCOC(=O)N1CCC(CN2CCC(c3cc(-c4ccc5c(c4)OCO5)ccc3OC)CC2)CC1

>  <value>
< 25%

$$$$

Input line: Which Emax is reported for this compound? COc1ccc(-c2ccc(CC#N)cc2)cc1C1CCN(C2CCOCC2)CC1
Output line: < 25%

Input line: Which Emax is reported for this compound? COc1ccccc1C1CCN(C2CCC(C3CCCCC3)CC2)CC1 (centres unmarked)
Output line: < 25%

Input line: Which Emax is reported for this compound? COc1cccc(-c2ccc(OC)c(C3CCN([C@@H]4C[C@H]5CC[C@H]4C5)CC3)c2)c1
Output line: < 25%

---

- system-under-test: M1 muscarinic receptor (Homo sapiens)
- Construct: expressed in transfected cells; host or cells: CHO (M1-CHO)
- assay-details: Functional mobilization of intracellular calcium (FLIPR), M1-CHO cells
- Format: cell-based
- details: 100% efficacy = maximum response obtained with the Carbachol control
measured-parameter: Emax

Known results for molecules:
>  <molecule>
CCOC(=O)N1C2CCC1CC(N1CCC(c3cc(-c4ccc(C(=O)NC)cc4)ccc3OC)CC1)C2 (stereo not drawn)

>  <system-under-test>
M1 muscarinic receptor (Homo sapiens)

>  <value>
25 to 100%

$$$$
>  <molecule>
COc1ccc(-c2ccc(CC#N)cc2)cc1C1CCN(C2CCOCC2)CC1

>  <system-under-test>
M1 muscarinic receptor (Homo sapiens)

>  <value>
< 25%

$$$$

Turning to the following molecule.
Input line: Entry Clc1ccc(-c2ccccc2C2CCN([C@H]3C[C@H]4CC[C@H]3C4)CC2)cc1 , system M1 muscarinic receptor (Homo sapiens): what Emax was measured?
Output line: 25 to 100%

Data credit: patent US7880007B2
